system: SW1271 (Small Cell Lung Carcinoma); assay: combination Emax (second highest fraction inhibited in the dose matrix, 72 h); higher = more inhibition; extreme values may be limits of the assay

compound	combination Emax
CN(CCO)CC[C@H](CSc1ccccc1)Nc1ccc(S(=O)(=O)NC(=O)c2ccc(N3CCC([C@@H](O)c4ccccc4-c4ccc(Cl)cc4)CC3)cc2)cc1S(=O)(=O)C(F)(F)F [AZD4320] + Cn1cnc2c(F)c(Nc3ccc(Br)cc3Cl)c(C(=O)NOCCO)cc21 [Selumetinib] (first compound max 1 µM, 7x7, partner max 3 µM)	0.534
CN(CCO)CC[C@H](CSc1ccccc1)Nc1ccc(S(=O)(=O)NC(=O)c2ccc(N3CCC([C@@H](O)c4ccccc4-c4ccc(Cl)cc4)CC3)cc2)cc1S(=O)(=O)C(F)(F)F [AZD4320] + C[C@@H](Nc1cc(F)cc(F)c1)c1cc(C(=O)N(C)C)cc2c(=O)cc(N3CCOCC3)oc12 [AZD8186] (first compound max 1 µM, 7x7, partner max 3 µM)	0.649

----------
Catalogue of molecules with associated combination Emax
test system: LoVo (Colorectal Carcinoma); assay: combination Emax (second highest fraction inhibited in the dose matrix, 72 h); higher = more inhibition; extreme values may be limits of the assay
endpoint_label: combination Emax

molecule	measured_number
C=CCn1c(=O)c2cnc(Nc3ccc(N4CCN(C)CC4)cc3)nc2n1-c1cccc(C(C)(C)O)n1 [AZD1775] + O=C(c1cc(Cc2n[nH]c(=O)c3ccccc23)ccc1F)N1CCN(C(=O)C2CC2)CC1 [Olaparib] (first compound max 1 µM, partner max 10 µM)	0.781
CN(CCO)CC[C@H](CSc1ccccc1)Nc1ccc(S(=O)(=O)NC(=O)c2ccc(N3CCC([C@@H](O)c4ccccc4-c4ccc(Cl)cc4)CC3)cc2)cc1S(=O)(=O)C(F)(F)F [AZD4320] + C[C@@H]1COCCN1C2=NC(=NC(=C2)C3(CC3)[S@](=N)(=O)C)C4=C5C=CNC5=NC=C4 [AZD6738] (first compound max 1 µM, 7x7, partner max 10 µM)	0.838
CCN(CCO)CCCOc1ccc2c(Nc3cc(CC(=O)Nc4cccc(F)c4)[nH]n3)ncnc2c1 [AZD2811] + C[C@@H]1COCCN1C2=NC(=NC(=C2)C3(CC3)[S@](=N)(=O)C)C4=C5C=CNC5=NC=C4 [AZD6738] (first compound max 1 µM, 7x7, partner max 10 µM)	0.83
Cc1c2c(nn1C)CSCc1cc(n(C)n1)CSc1cc(c3ccccc3c1)OCCCc1c(C(=O)O)n(C)c3c-2c(Cl)ccc13 [AZD5991] + C=CCn1c(=O)c2cnc(Nc3ccc(N4CCN(C)CC4)cc3)nc2n1-c1cccc(C(C)(C)O)n1 [AZD1775] (first compound max 1 µM, partner max 1 µM)	0.856

----------
system: HDLM-2 (Hodgkin's Lymphoma); test: combination Emax (second highest fraction inhibited in the dose matrix, 72 h); higher = more inhibition; extreme values may be limits of the assay
endpoint_label: combination Emax

molecule	measured_number
CCN(CCO)CCCOc1ccc2c(Nc3cc(CC(=O)Nc4cccc(F)c4)[nH]n3)ncnc2c1 [AZD2811] + C[C@@H]1COCCN1C2=NC(=NC(=C2)C3(CC3)[S@](=N)(=O)C)C4=C5C=CNC5=NC=C4 [AZD6738] (first compound max 1 µM, 7x7, partner max 10 µM)	0.515
CN(CCO)CC[C@H](CSc1ccccc1)Nc1ccc(S(=O)(=O)NC(=O)c2ccc(N3CCC([C@@H](O)c4ccccc4-c4ccc(Cl)cc4)CC3)cc2)cc1S(=O)(=O)C(F)(F)F [AZD4320] + Cc1cc2ncnn2cc1Nc1ncc2c(n1)n(C1CCOCC1)c(=O)n2C [AZD7648] (first compound max 1 µM, 7x7, partner max 10 µM)	0.895
C[C@@H](Oc1cc(-c2cnn(C3CCNCC3)c2)cnc1N)c1c(Cl)ccc(F)c1Cl [Crizotinib] + Cn1cnc2c(F)c(Nc3ccc(Br)cc3Cl)c(C(=O)NOCCO)cc21 [Selumetinib] (first compound max 10 µM, 7x7, partner max 10 µM)	0.193
